This collection of values is drawn from paper PMC10444810.

# System: icHep (PXB-cells on claudin-1, -2, -3, -9 coated Transwell permeable support)
# test_description: icHep permeation assay (sinusoidal to bile side) to estimate drug biliary excretion clearance
# condition_details: icHep (HUM181001B); scaled up from in vitro CLbile,int; mean ± S.D., n = 3
Measured Biliary excretion clearance, in vivo, predicted, CLbile, int of individual entries
Your answer should be a plain number; it is taken to be in mL/min.

Previously resolved entries follow.
compound: CC[C@H]1OC(=O)[C@H](C)[C@@H](O[C@H]2C[C@@](C)(OC)[C@@H](O)[C@H](C)O2)[C@H](C)[C@@H](O[C@@H]2O[C@H](C)C[C@H](N(C)C)[C@H]2O)[C@](C)(O)C[C@@H](C)C(=O)[C@H](C)[C@@H](O)[C@]1(C)O [Erythromycin, erythromycin]
result: 171

compound: CN/C(=N/CCSCc1nc[nH]c1C)NC#N [Cimetidine, cimetidine]
result: 97.8

compound: CN(Cc1cnc2nc(N)nc(N)c2n1)c1ccc(C(=O)N[C@@H](CCC(=O)O)C(=O)O)cc1 [Methotrexate, methotrexate]
result: 157

compound: CC[C@]1(O)C[C@H]2CN(CCc3c([nH]c4ccccc34)[C@@](C(=O)OC)(c3cc4c(cc3OC)N(C=O)[C@H]3[C@@](O)(C(=O)OC)[C@H](OC(C)=O)[C@]5(CC)C=CCN6CC[C@]43[C@@H]65)C2)C1 [Vincristine, vincristine]
result: 27.6

Incoming: # Biliary excretion clearance, in vivo, predicted, CLbile, int lookup, item CCOc1ccc2ccccc2c1C(=O)N[C@@H]1C(=O)N2[C@@H]1SC(C)(C)[C@@H]2C(=O)O [Nafcillin, nafcillin]
Outgoing: 232

----------
Measured In vitro CLbile, app, Mean values are reported for all entries that follow.
# Test system: icHep (PXB-cells on claudin-1, -2, -3, -9 coated Transwell permeable support)
# test_description: icHep permeation assay (sinusoidal to bile side) to estimate drug biliary excretion clearance
# condition_details: icHep (JFC); mean
Kindly provide the numeric value in ul/min/106 cells only, without the unit symbol.

compound: CN(Cc1cnc2nc(N)nc(N)c2n1)c1ccc(C(=O)N[C@@H](CCC(=O)O)C(=O)O)cc1 [Methotrexate, methotrexate]
study_system: icHep (PXB-cells on claudin-1, -2, -3, -9 coated Transwell permeable support)
units: ul/min/106 cells
In vitro CLbile, app, Mean: 2.11
//
compound: CN/C(=N/CCSCc1nc[nH]c1C)NC#N [Cimetidine, cimetidine]
study_system: icHep (PXB-cells on claudin-1, -2, -3, -9 coated Transwell permeable support)
units: ul/min/106 cells
In vitro CLbile, app, Mean: 2.01
//
compound: CCOc1ccc2ccccc2c1C(=O)N[C@@H]1C(=O)N2[C@@H]1SC(C)(C)[C@@H]2C(=O)O [Nafcillin, nafcillin]
study_system: icHep (PXB-cells on claudin-1, -2, -3, -9 coated Transwell permeable support)
units: ul/min/106 cells
In vitro CLbile, app, Mean: 3.32

Here is the next item to consider.
Incoming: Name the reported In vitro CLbile, app, Mean value associated with the compound CC[C@]1(O)C[C@H]2CN(CCc3c([nH]c4ccccc34)[C@@](C(=O)OC)(c3cc4c(cc3OC)N(C=O)[C@H]3[C@@](O)(C(=O)OC)[C@H](OC(C)=O)[C@]5(CC)C=CCN6CC[C@]43[C@@H]65)C2)C1 [Vincristine, vincristine]
Outgoing: 0.377

----------
# Test system: icHep (PXB-cells on claudin-1, -2, -3, -9 coated Transwell permeable support)
# test_description: icHep permeation assay (sinusoidal to bile side) to estimate drug biliary excretion clearance
# condition_details: icHep (HUM181001B); mean
quantity_measured: In vitro CLbile, app, Mean (ul/min/106 cells)
Answer in ul/min/106 cells, number only, no unit symbol.

molecule: CCOc1ccc2ccccc2c1C(=O)N[C@@H]1C(=O)N2[C@@H]1SC(C)(C)[C@@H]2C(=O)O
study_system: icHep (PXB-cells on claudin-1, -2, -3, -9 coated Transwell permeable support)
result: 1.91

molecule: CN(Cc1cnc2nc(N)nc(N)c2n1)c1ccc(C(=O)N[C@@H](CCC(=O)O)C(=O)O)cc1 [Methotrexate, methotrexate]
study_system: icHep (PXB-cells on claudin-1, -2, -3, -9 coated Transwell permeable support)
result: 2.23

Incoming: Which In vitro CLbile, app, Mean reading was recorded for the molecule CN/C(=N/CCSCc1nc[nH]c1C)NC#N ?
Outgoing: 1.04

Incoming: Try CC[C@]1(O)C[C@H]2CN(CCc3c([nH]c4ccccc34)[C@@](C(=O)OC)(c3cc4c(cc3OC)N(C=O)[C@H]3[C@@](O)(C(=O)OC)[C@H](OC(C)=O)[C@]5(CC)C=CCN6CC[C@]43[C@@H]65)C2)C1 next.
Outgoing: 0.287

----------
# System: icHep (PXB-cells on claudin-1, -2, -3, -9 coated Transwell permeable support)
# test_description: icHep permeation assay (sinusoidal to bile side) to estimate drug biliary excretion clearance
# condition_details: Control, block with icHep (HUM181001B); mean
# key: entry, value: In vitro CLbile, app, Mean
Numeric answer only, unit ul/min/106 cells assumed.

compound: CN/C(=N/CCSCc1nc[nH]c1C)NC#N
result: 0.585
--
compound: CCOc1ccc2ccccc2c1C(=O)N[C@@H]1C(=O)N2[C@@H]1SC(C)(C)[C@@H]2C(=O)O
result: 0.838
--
compound: CC[C@]1(O)C[C@H]2CN(CCc3c([nH]c4ccccc34)[C@@](C(=O)OC)(c3cc4c(cc3OC)N(C=O)[C@H]3[C@@](O)(C(=O)OC)[C@H](OC(C)=O)[C@]5(CC)C=CCN6CC[C@]43[C@@H]65)C2)C1
result: 0.159

Incoming: Given the entry CN(Cc1cnc2nc(N)nc(N)c2n1)c1ccc(C(=O)N[C@@H](CCC(=O)O)C(=O)O)cc1 [Methotrexate, methotrexate] , report its measured In vitro CLbile, app, Mean.
Outgoing: 1.51

Incoming: Field entry: CC[C@H]1OC(=O)[C@H](C)[C@@H](O[C@H]2C[C@@](C)(OC)[C@@H](O)[C@H](C)O2)[C@H](C)[C@@H](O[C@@H]2O[C@H](C)C[C@H](N(C)C)[C@H]2O)[C@](C)(O)C[C@@H](C)C(=O)[C@H](C)[C@@H](O)[C@]1(C)O
Outgoing: 0.624

----------
# Test system: icHep (PXB-cells on claudin-1, -2, -3, -9 coated Transwell permeable support)
# test_description: icHep permeation assay (sinusoidal to bile side) to estimate drug biliary excretion clearance
# condition_details: icHep (HUM181001B), mean of 3
# note: boundary value 200 mL/min maps to false; Predicted in vivo CLbile, int, Mean below it maps to true

compound: CN/C(=N/CCSCc1nc[nH]c1C)NC#N
class: true
//
compound: CC[C@]1(O)C[C@H]2CN(CCc3c([nH]c4ccccc34)[C@@](C(=O)OC)(c3cc4c(cc3OC)N(C=O)[C@H]3[C@@](O)(C(=O)OC)[C@H](OC(C)=O)[C@]5(CC)C=CCN6CC[C@]43[C@@H]65)C2)C1
class: true
//
compound: CC[C@H]1OC(=O)[C@H](C)[C@@H](O[C@H]2C[C@@](C)(OC)[C@@H](O)[C@H](C)O2)[C@H](C)[C@@H](O[C@@H]2O[C@H](C)C[C@H](N(C)C)[C@H]2O)[C@](C)(O)C[C@@H](C)C(=O)[C@H](C)[C@@H](O)[C@]1(C)O
class: true
//
compound: CN(Cc1cnc2nc(N)nc(N)c2n1)c1ccc(C(=O)N[C@@H](CCC(=O)O)C(=O)O)cc1 [Methotrexate, methotrexate]
class: true

Next, consider the following compound.
Incoming: Is it true that Predicted in vivo CLbile, int, Mean reported for CCOc1ccc2ccccc2c1C(=O)N[C@@H]1C(=O)N2[C@@H]1SC(C)(C)[C@@H]2C(=O)O is less than 200 mL/min?
Outgoing: false
